Hello, the source for this data is PubChem BioAssay AID328, in case you need it.

T/C overview
# System: BDF1 mice, P388 leukemia ip, median survival T/C
# Test Method Notes: NCI In Vivo Anticancer Drug Screen. Data for tumor model P388 Leukemia (intraperitoneal) in B6D2F1 (BDF1) mice
# Cond: endpoint: median survival time; dose: 100.0 mg/kg/injection; schedule: Q01DX009 (ip); vehicle: water; higher = longer survival
Inconclusive results and toxic doses are left out.
Readout Label: T/C

INSERT INTO results (molecule, assayed_target, readout_label, result) VALUES
  ('O=C(Cn1ccc(O)cc1=O)N1CCOCC1', 'BDF1 mice, P388 leukemia ip, median survival T/C', 'T/C', '105 % of control'),
  ('O=C1CCC2(CCCC2)c2ccccc21', 'BDF1 mice, P388 leukemia ip, median survival T/C', 'T/C', '106 % of control'),
  ('O=C1C(c2ccccc2)=C(c2ccccc2)C(c2ccccc2)=C1c1ccccc1', 'BDF1 mice, P388 leukemia ip, median survival T/C', 'T/C', '101 % of control'),
  ('COc1ccc(C(=O)/C=C/c2ccc(OCc3ccccc3)c(OC)c2)cc1OC', 'BDF1 mice, P388 leukemia ip, median survival T/C', 'T/C', '114 % of control'),
  ('CC(C)C(=O)c1ccc(-c2ccccc2)cc1', 'BDF1 mice, P388 leukemia ip, median survival T/C', 'T/C', '111 % of control'),
  ('CC1=C(C)CC2C(=O)C=CC(=O)C2C1 (stereo not drawn)', 'BDF1 mice, P388 leukemia ip, median survival T/C', 'T/C', '100 % of control'),
  ('O=C1c2ccccc2C(=O)N1c1cc(OCc2ccccc2)cc(OCc2ccccc2)c1', 'BDF1 mice, P388 leukemia ip, median survival T/C', 'T/C', '96 % of control'),
  ('O=C1c2ccccc2C(=O)c2c(NCCNCCNCCO)ccc(NCCNCCNCCO)c21', 'BDF1 mice, P388 leukemia ip, median survival T/C', 'T/C', '115 % of control');
